Consider the following compounds; for each one, report its IC50.
- target.or.test.system: Human fibrinogen receptor (αIIbβ3) (Homo sapiens, UniProt P05106+P08514)
- Construct: purified from outdated platelets
- Sequence (P08514 32-887 limits assumed, one chain of several): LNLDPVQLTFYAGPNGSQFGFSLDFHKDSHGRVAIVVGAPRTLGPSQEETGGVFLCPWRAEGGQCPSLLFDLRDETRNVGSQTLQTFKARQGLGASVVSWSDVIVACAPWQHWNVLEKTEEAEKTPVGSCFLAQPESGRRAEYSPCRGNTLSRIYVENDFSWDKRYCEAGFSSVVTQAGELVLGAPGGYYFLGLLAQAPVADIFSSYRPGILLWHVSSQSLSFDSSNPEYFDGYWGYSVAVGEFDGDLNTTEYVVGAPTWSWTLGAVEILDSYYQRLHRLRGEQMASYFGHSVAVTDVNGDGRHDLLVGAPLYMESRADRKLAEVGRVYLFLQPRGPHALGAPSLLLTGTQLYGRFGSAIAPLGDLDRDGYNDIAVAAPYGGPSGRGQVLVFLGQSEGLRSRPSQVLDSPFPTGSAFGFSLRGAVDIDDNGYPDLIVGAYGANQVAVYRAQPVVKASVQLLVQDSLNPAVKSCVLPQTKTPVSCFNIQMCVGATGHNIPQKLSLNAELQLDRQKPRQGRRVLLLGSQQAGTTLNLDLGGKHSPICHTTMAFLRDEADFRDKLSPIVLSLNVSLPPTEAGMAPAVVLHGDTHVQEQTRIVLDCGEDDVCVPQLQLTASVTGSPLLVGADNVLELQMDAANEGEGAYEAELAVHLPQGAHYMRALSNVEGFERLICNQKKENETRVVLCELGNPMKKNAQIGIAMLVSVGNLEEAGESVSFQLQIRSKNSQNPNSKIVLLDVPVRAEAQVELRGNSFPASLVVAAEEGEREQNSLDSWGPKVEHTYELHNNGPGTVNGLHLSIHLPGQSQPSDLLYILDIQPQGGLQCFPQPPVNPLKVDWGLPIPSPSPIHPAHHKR
- Sequence (P08514 891-1039 limits assumed, one chain of several): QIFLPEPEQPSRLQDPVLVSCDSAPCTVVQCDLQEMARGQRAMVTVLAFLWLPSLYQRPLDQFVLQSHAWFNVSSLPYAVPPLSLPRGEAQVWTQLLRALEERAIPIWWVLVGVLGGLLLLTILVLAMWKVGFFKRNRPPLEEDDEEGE
- assay.name: Purified IIb/IIIa receptor assay (solid phase receptor assay)
- condition.info: inhibition of 50% of maximum binding of biotinylated vitronectin; highest concentration tested 1.0×10^-4 M
- Protocol: The activity of the compounds of the present invention was tested in the following assays. Human fibrinogen receptor (αIIbβ3) was purified from outdated platelets. […] The purified human fibrinogen receptor (αIIbβ3) was diluted from stock solutions to 1.0 μg/mL in Tris-buffered saline containing 1.0 mM Ca^++, Mg^++, and Mn^++, pH 7.4 (TBS^+++). […] The data were analyzed using a macro written for use with the EXCEL™ spreadsheet program. […]
Where a name gives a salt, the structure may show the parent alone.
Only the number, expressed in nM, is required.

What does the data say about its IC50? Entry: N=C(N)c1cccc(C(=O)Nc2ccc(CCC(=O)O)cc2)c1 [Example 20]
39900

May I ask what IC50 has been recorded for CCOC(=O)C(Cc1ccc(NC(=O)c2cccc(NC(=N)N)c2)cc1)NS(=O)(=O)c1ccccc1 (stereo not drawn) [Example 40, monohydrate trifluoroacetate Salt] ?
748

What IC50 value was documented for this compound, CCOC(=O)C(Cc1ccc(NC(=O)c2cccc(NC(=N)N)c2)cc1)NC(=O)c1ccccc1 (stereo not drawn) [Example 36, monohydrate trifluoroacetate Salt] ?
10500

Entry N=C(N)Nc1cccc(C(=O)Nc2ccc(CCC(=O)O)c(CCC(=O)O)c2)c1 [Example 100, trifluoroacetate Salt] : reported IC50 = ?
44

I have this compound here, CCOC(=O)C(Cc1ccc(NC(=O)c2cccc(NC(=N)N)c2)cc1)NS(C)(=O)=O (stereo not drawn) [Example 37, monohydrate trifluoroacetate Salt] , and I need its recorded IC50.
2380

----------
- target.or.test.system: Human vitronectin receptor(αvβ3) (Homo sapiens, UniProt P05106+P06756)
- Construct: purified from human placenta
- Sequence (P06756 31-889 limits assumed): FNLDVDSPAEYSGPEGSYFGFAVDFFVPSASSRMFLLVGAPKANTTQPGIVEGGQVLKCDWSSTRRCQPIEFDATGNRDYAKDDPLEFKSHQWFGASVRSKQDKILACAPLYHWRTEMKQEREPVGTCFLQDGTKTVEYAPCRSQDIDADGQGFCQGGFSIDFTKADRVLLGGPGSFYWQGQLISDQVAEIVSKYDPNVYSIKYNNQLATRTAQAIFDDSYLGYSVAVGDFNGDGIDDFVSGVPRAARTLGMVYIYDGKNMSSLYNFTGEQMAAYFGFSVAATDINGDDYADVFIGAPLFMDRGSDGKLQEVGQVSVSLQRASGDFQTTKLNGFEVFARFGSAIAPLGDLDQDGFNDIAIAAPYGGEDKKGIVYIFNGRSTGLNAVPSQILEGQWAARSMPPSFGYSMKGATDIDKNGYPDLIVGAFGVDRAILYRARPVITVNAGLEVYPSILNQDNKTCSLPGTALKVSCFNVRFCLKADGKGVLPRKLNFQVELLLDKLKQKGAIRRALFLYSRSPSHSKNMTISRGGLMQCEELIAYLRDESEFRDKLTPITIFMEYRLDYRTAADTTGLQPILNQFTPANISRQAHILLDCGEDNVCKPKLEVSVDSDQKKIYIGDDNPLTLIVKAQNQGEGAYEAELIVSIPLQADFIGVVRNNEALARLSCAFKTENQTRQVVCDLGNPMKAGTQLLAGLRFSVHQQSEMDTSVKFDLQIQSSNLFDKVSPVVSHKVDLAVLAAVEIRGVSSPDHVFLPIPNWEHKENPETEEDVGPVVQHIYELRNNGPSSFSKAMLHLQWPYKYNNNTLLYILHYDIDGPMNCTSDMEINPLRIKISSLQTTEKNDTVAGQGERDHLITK
- Sequence (P06756 891-1048 limits assumed): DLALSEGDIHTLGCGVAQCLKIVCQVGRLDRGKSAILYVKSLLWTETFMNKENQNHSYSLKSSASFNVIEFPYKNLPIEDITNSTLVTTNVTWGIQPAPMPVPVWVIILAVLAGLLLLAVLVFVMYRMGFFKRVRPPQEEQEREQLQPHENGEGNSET
- Sequence (P05106 27-788): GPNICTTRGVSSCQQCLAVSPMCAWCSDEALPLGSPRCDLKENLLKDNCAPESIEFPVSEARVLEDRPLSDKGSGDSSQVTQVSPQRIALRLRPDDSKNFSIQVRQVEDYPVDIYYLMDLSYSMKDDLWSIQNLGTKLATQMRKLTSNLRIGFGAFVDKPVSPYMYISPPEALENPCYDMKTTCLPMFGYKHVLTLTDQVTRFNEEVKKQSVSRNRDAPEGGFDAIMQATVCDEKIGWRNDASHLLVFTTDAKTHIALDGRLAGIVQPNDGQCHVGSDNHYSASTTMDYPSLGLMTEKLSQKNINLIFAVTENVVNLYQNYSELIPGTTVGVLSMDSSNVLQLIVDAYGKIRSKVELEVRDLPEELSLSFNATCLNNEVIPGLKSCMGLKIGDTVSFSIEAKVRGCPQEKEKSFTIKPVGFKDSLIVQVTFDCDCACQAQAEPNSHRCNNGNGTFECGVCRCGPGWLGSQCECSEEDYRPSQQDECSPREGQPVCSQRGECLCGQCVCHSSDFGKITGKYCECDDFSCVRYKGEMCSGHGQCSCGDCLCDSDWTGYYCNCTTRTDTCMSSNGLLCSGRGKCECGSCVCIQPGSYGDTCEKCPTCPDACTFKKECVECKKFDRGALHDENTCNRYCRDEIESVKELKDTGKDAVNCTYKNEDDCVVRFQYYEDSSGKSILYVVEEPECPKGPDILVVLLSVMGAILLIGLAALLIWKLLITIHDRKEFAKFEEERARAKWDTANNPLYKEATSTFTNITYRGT
- assay.name: Vitronectin adhesion assay (solid phase receptor assay, αvβ3)
- condition.info: inhibition of 50% of maximum binding of biotinylated vitronectin; highest concentration tested 1.0×10^-4 M; read-out: AvB3 IC50
Structures can show the parent of a compound that is named as a salt.
observation.type: IC50
Answer by giving the amount and then stating its unit.

Which IC50 value is on record for CC(C)(C)CC(=O)NC(Cc1ccc(NC(=O)c2cc(NC(=N)N)cc(C(F)(F)F)c2)cc1)C(=O)O (stereo not drawn) [Example 110, trifluoroacetate Salt] ?
4 nM

Item under review: COC(=O)NC(Cc1ccc(NC(=O)c2cccc(NC(=N)N)c2)cc1)C(=O)O (stereo not drawn) [Example 54, trifluoroacetate Salt] . Reported IC50?
0.77 nM

Report IC50 for CCOC(=O)C(Cc1ccc(NC(=O)c2cccc(NC(=N)N)c2)cc1)NS(C)(=O)=O (stereo not drawn) [Example 37, monohydrate trifluoroacetate Salt] please.
97.8 nM
